# assaySummary: Pharmacokinetic (PK) studies, oral dose
# measurementParameters: C57/BL6, mouse, blood, po, 5 mg/kg
measuredMetric: Cmax
Answer as a quantity: numeral, then unit.

GET /value?item= Cc1ccccc1-n1nnc(C(=O)Nc2ccc3cc(CN4CCNCC4)ccc3n2)c1C [YA6060] &field=Cmax returns 24000 ng/mL

* * *

# assaySummary: Cytotoxicity (CC50) during the luciferase gene reporter assay
# Assay type: cell-based
# measurementParameters: human, HEK293 cells; short treatment duration of the luciferase gene reporter assay
In this section, each of the compounds is paired with its reported CC50.

GET /value?item= COc1ccc2sc(NC(=O)c3nnn(-c4ccccc4C)c3C)nc2c1 [YA4045] &field=CC50 returns > 92 µM

GET /value?item= Cc1ccccc1-n1nnc(C(=O)Nc2ccc3ccccc3n2)n1 [YA70031] &field=CC50 returns > 92 µM

GET /value?item= Cc1c(C(=O)Nc2nc3ccccc3s2)nnn1-c1cccc(Br)c1 [YA1050] &field=CC50 returns > 92 µM

GET /value?item= Cc1ccccc1-n1nnc(C(=O)Nc2nc3ccc(C(F)(F)F)cc3s2)c1C [YA4063] &field=CC50 returns > 92 µM

GET /value?item= Cc1ccccc1-n1nnc(C(=O)Nc2ncc(-c3ccccc3)s2)c1C [YA4085] &field=CC50 returns > 92 µM
